Measured values drawn from ChEMBL document CHEMBL5303304 for this set.

tested on: U2OS; test: Incucyte cell viability with U2OS; assay type: toxicity, cell-based; details: human, 12 h, 10 µM, compound concentration 10 uM, replicate number 1; also: unitless GR value; below 1 slowed growth and below 0 cell loss
readout: Growth Rate

>>> observed_result("CC1(C)CCC(CN2CCN(c3ccc(C(=O)NS(=O)(=O)c4ccc(NCC5CCOCC5)c([N+](=O)[O-])c4)c(Oc4cnc5[nH]ccc5c4)c3)CC2)=C(c2ccc(Cl)cc2)C1 [VENETOCLAX]")
0.81
>>> observed_result("CC(C=CC1=C(C)CCCC1(C)C)=CC=CC(C)=CC(=O)O")
0.3
>>> observed_result("CCN1/C(=C/C(C)=O)Sc2ccc(OC(C)=O)cc21")
0.91
>>> observed_result("O=C(Nc1ccc(Oc2ccc(Cl)cc2)c(Cl)c1)c1cc(I)cc(I)c1O [RAFOXANIDE]")
0.92
>>> observed_result("N#Cc1cccc(-c2c[nH]c3ncnc(N4CCOCC4)c23)c1")
0.88
>>> observed_result("CN[C@@H]1CC[C@@H](c2ccc(Cl)c(Cl)c2)c2ccccc21.Cl")
0.75
>>> observed_result("NCC1CCC(CNc2nc(NCc3ccccc3OC(F)(F)F)ncc2[N+](=O)[O-])CC1 (stereo unspecified)")
0.44
>>> observed_result("CC(C)S(=O)(=O)c1ccccc1Nc1nc(N[C@@H]2CCCN(CCCCCCCNC(=O)COc3cccc4c3C(=O)N(C3CCC(=O)N(C)C3=O)C4=O)C2)ncc1Cl (stereo partly specified)")
0.11
>>> observed_result("CCc1ncnc(N2CCN(C(C)=O)CC2)c1C#Cc1ccc(N)nc1.Cl.Cl")
0.73
>>> observed_result("CC(=O)c1ccc2c(c1)/C(=C(/NC1CCN(C)CC1)c1ccc3c(c1)OCO3)C(=O)N2")
0.52
>>> observed_result("CC(C)C(=O)N[C@@H]1CCN(C(=O)Nc2nc3c(s2)-c2nc(-c4ccccc4Cl)ncc2CC3)C1")
0.94
>>> observed_result("CC(C)c1nc2c(c3c1[C@H](c1ccc(C(F)(F)F)cc1)OC31CCOCC1)[C@H](O)CC(C)(C)C2")
0.82
>>> observed_result("N[C@@H]1CCCN(c2c(/C=C3\\SC(=O)NC3=O)cccc2-c2ccccc2)C1")
0.97
>>> observed_result("COc1ccccc1N1CCN(c2ncnc3c2cnn3-c2ccccc2)CC1")
0.47
>>> observed_result("CCC(C(=O)Nc1ccc(-c2cc3ccccc3s2)c(C(N)=O)c1)c1nccs1 (stereo unspecified)")
0.41
>>> observed_result("CC(C)n1nc(-c2cnc(N)c(OC(F)(F)F)c2)cc1[C@H]1[C@@H]2CN(C3COC3)C[C@@H]21")
0.92
>>> observed_result("CC(=O)Nc1cccc(-n2c(=O)n(C3CC3)c(=O)c3c(Nc4ccc(I)cc4F)n(C)c(=O)c(C)c32)c1 [TRAMETINIB]")
0.58
>>> observed_result("COc1cc(-c2cn(C)c(=O)c3cnccc23)cc(OC)c1CN(C)C")
0.86
>>> observed_result("Cn1c(Nc2c(Cl)cccc2Cl)nc2ccc3nc[nH]c(=O)c3c21")
0.97
>>> observed_result("O=C1NCCSc2c1sc1ccc(O)cc21")
0.56
>>> observed_result("CC(=O)c1c(C)c2cnc(Nc3ccc(N4CCN(CCOCCOCCOCCNC(=O)COc5cccc6c5C(=O)N(C5CCC(=O)NC5=O)C6=O)CC4)cn3)nc2n(C2CCCC2)c1=O (stereo unspecified)")
0.99
>>> observed_result("O=C(NC1CCNCC1)c1n[nH]cc1NC(=O)c1c(Cl)cccc1Cl [AT-7519]")
0.18
>>> observed_result("CO[C@@H](C)CN1CC[C@]2(C)c3cc(O)ccc3C[C@H]1C2(C)C.Cl")
0.82
>>> observed_result("C[C@@H]1CC[C@@]2(OC1)O[C@H]1[C@@H](O)[C@H]3[C@@H]4CC[C@H]5C[C@@H](O[C@@H]6O[C@H](CO)[C@H](O[C@@H]7O[C@H](CO)C(O)[C@H](O[C@@H]8OC[C@@H](O)[C@H](O)[C@H]8O)[C@H]7O[C@@H]7O[C@H](CO)[C@H](O)[C@H](O[C@@H]8O[C@H](CO)[C@@H](O)[C@H](O)[C@H]8O)[C@H]7O)[C@H](O)[C@H]6O)[C@H](O)C[C@]5(C)[C@H]4CC[C@]3(C)[C@H]1[C@@H]2C (stereo partly specified) [DIGITONIN]")
0.85
>>> observed_result("OC(c1ccc(-c2ccc(CN3CCN(Cc4ccncc4)CC3)cc2)c(F)c1)(C(F)(F)F)C(F)(F)F")
0.84
>>> observed_result("Cc1cc2c(-c3ccco3)cnc(N[C@H]3CCN(C)C[C@@H]3C(=O)NC3CCCCC3)c2[nH]c1=O [GSK791]")
-0.81
